# Test system: NLRP3
# Assay Protocol: IL-1β secretion assay in PMA-differentiated, LPS/nigericin-stimulated THP-1 cells (384-well, ELISA read-out)
# Assay type: cell-based, human
# Assay Setup: Homo sapiens, THP-1, Table 4; IL-1β secretion, LPS/nigericin-stimulated THP-1 cells; read-out: IC50
Quantity: IC50

Exercise: Requested read-out: IC50. Entry: O=C(CN1CC2(CC2)c2cc(Br)ccc2C1=O)Nc1ncc(C2CC2)cn1
Key: 390 nM

Exercise: Okay, and O=C(CN1CC2(CC2(F)F)c2c(ccc(C3CC3)c2F)C1=O)Nc1ncc(F)cn1 (stereo not drawn) ?
Key: 38 nM

Exercise: Entry to check: CC1(c2ccc3c(c2)C2(CC2)CN(CC(=O)Nc2ncc(F)cn2)C3=O)CC1
Key: 1220 nM

Exercise: Then this compound: O=C(CN1CC2(CC2)c2cc(Br)ccc2C1=O)Nc1ncc(C2COC2)cn1
Key: 768 nM

Exercise: Check CCN1CCCC(NC(=O)CN2CC3(CC3)c3cc(Br)ccc3C2=O)C1 (stereo not drawn) too.
Key: 1450 nM

Exercise: What do you get for O=C(CN1CC2(CC2)c2cc(Br)ccc2C1=O)NC1CCc2cn[nH]c2C1 (stereo not drawn) ?
Key: 6250 nM

Exercise: Would you mind doing O=C(CN1CC2(CC2)c2cc(Br)ccc2C1=O)Nc1cc2cccnc2cn1 as well?
Key: 2950 nM

Exercise: Try this compound next: O=C(CN1CC2(CC2)c2cc(C(F)(F)F)ccc2C1=O)Nc1ncccn1
Key: 291 nM

Exercise: Now give it for Cc1cc(NC(=O)CN2CC3(CC3)c3cc(Br)ccc3C2=O)nc(C)n1 too.
Key: 3980 nM
